The reported measurements were obtained from patent US20110098309A1.

pIC50: −log10 of the molar value.
Hi! I'm sharing some pIC50 results obtained with Aβ1-42 (Homo sapiens).
quantity_name: pIC50

(P) COc1ccc(C(=O)N/N=C/c2cc(OC)ccc2O)c(O)c1
(Q) COc1ccc(O)c(/C=N/NC(=O)c2cc(-c3ccc(Cl)s3)n[nH]2)c1
(R) O=C(N/N=C/c1ccc(O)cc1O)c1ccccc1NS(=O)(=O)c1ccc(Cl)cc1
[ask] List by increasing pIC50. Response field: labels, in requested order.
[reply] Q, P, R
(Q: 4.40, P: 4.95, R: 5.17)

(I) COc1ccc(O)c(/C=N/NC(=O)c2ccc(F)cc2O)c1
(II) Cc1cccc(/C=N/NC(=O)c2ccccc2O)c1O
[ask] For the two items I and II , which reports the higher pIC50 value? Refer to your chosen item by its label in the answer.
[reply] I
(I: 5.08, II: 4.54)

(a) Cc1nnsc1C(=O)N/N=C/c1cc(Cl)ccc1O
(b) O=C(N/N=C/c1cc(Cl)cc(Cl)c1O)c1ccccc1O
[ask] Returns the identifier with the smallest measured pIC50 among a and b . Refer to your chosen item by its label in the answer.
[reply] a

###

Hi! I'm sharing some IC50 results obtained with Aβ1-42 (Homo sapiens, UniProt P05067).
Sequence (P05067 672-713 limits assumed): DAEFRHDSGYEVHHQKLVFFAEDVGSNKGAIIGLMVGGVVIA
quantity_name: IC50 (µM)

Solved cases (5 shown):
[ask] Could you tell me which IC50 is on file for COc1cccc(-c2ccc(O)c(/C=N/NC(=O)c3ccccc3O)c2)c1 [Compound 48] ?
[reply] 3.7

[ask] Also, COc1ccc(O)c(/C=N/NC(=O)c2ccccc2NS(=O)(=O)c2ccc(Cl)cc2)c1 [Compound 71] please.
[reply] 9.7

[ask] Also, COc1ccc(O)c(/C=N/NC(=O)c2cccc3cccc(O)c23)c1 [Compound 105] please.
[reply] 36.5

[ask] Also, CCOC(=O)c1c(C)oc2cc(Br)c(O)c(/C=N/NC(=O)c3ccccc3O)c12 [Compound 77] please.
[reply] 11.6

[ask] Also, COc1ccc(O)c(/C=N/NC(=O)c2ccccc2N)c1 [Compound 110] please.
[reply] 42.3

(A) CC(C)(C)c1ccc(O)c(/C=N/NC(=O)c2ccccc2O)c1 [Compound 47]
(B) CC(C)(C)C(=O)C/C(=N/NC(=O)c1sc2cc(F)ccc2c1Cl)C(F)(F)F [Compound 12]
(C) O=C(N/N=C/c1cc(Cl)cc(Br)c1O)c1ccccc1O [Compound 108]
[ask] Ordering: ascending IC50. Response field: labels, in requested order.
[reply] A, B, C
(A: 3.5 µM, B: 8.6 µM, C: 41.7 µM)

###

study_system: Aβ1-42 (Homo sapiens)
quantity_name: IC50 (µM)

Solved cases (3 shown):
[ask] Could you tell me which IC50 is on file for COc1ccc(O)c(/C=N/NC(=O)c2ccc(-n3c(C)ccc3C)cc2)c1 [Compound 56] ?
[reply] 6.1

[ask] Also, O=C(N/N=C/c1cc(Cl)ccc1NS(=O)(=O)c1ccc(F)cc1F)c1ccccc1O [Compound 114] please.
[reply] 46.7

[ask] Also, O=C(N/N=C/c1cc(F)cc(F)c1O)c1ccccc1O [Compound 101] please.
[reply] 33.4

(A) C/C(CC(=O)c1ccco1)=N\NC(=O)c1sc2cc(F)ccc2c1Cl [Compound 4]
(B) O=C(C/C(=N/NC(=O)c1sc2cc(F)ccc2c1Cl)C(F)(F)F)c1cccs1 [Compound 24]
[ask] For the two items A and B , which reports the higher IC50 value? Refer to your chosen item by its label in the answer.
[reply] B

(P) COc1ccc(O)c(/C=N/NC(=O)c2c(O)cccc2F)c1 [Compound 95]
(Q) C/C(=N\NC(=O)c1ccccc1O)c1ccc(C)cc1 [Compound 79]
[ask] For the two items P and Q , which reports the higher IC50 value? Refer to your chosen item by its label in the answer.
[reply] P

(A) CS(=O)(=O)Nc1ccccc1C(=O)N/N=C(/CC(=O)c1cccs1)C(F)(F)F [Compound 5]
(B) COc1ccc(O)c(/C=N/NC(=O)c2cc(-c3ccc4c(c3)OCO4)n[nH]2)c1 [Compound 78]
[ask] For the two items A and B , which reports the higher IC50 value? Refer to your chosen item by its label in the answer.
[reply] B
